Assay Remarks: Microdose comparative bioavailability study in healthy adult subjects
Format: in vivo
Condition Details: both sexes, plasma; healthy human volunteers, oral, 100 µg free base; n = 4; read-out: t½, analyte Compound 3 (converted)
Reported Property: half-life (min)

[[record]]
record_smiles = "CCOC(=O)NC(N)=NC(=O)Cc1c(Cl)cccc1Cl.Cl"
value_unit = "min"
experimental_result = 57


###

Assay Remarks: Pharmacokinetics of guanfacine and prodrug in rat hepatic portal and tail veins after oral prodrug
Assay type: in vivo
Condition Details: tail vein (systemic) plasma, 1 mg/kg, read-out: Tail vein Prodrug Cmax
Reported Property: Cmax (ng/mL)

[[record]]
record_smiles = "CCOC(=O)NC(N)=NC(=O)Cc1c(Cl)cccc1Cl.Cl"
value_unit = "ng/mL"
experimental_result = 16.4

